Source: ChEMBL document CHEMBL2069282

Tested on: Hepatitis C virus
Test: Antiviral activity against Hepatitis C virus subtype 1a replicons infected in human HuH7 cells assessed as reduction in viral RNA levels by Rt-PCR
Type: functional, organism-based, Hepacivirus hominis
Details: Huh-7
pEC50: −log10 of the molar value.
reported-endpoint: pEC50

- chem-smiles: "Nc1ncnc2c1c(-c1ccco1)cn2[C@H]1C[C@H](O)[C@@H](CO)O1"
  observed-result: 4.96
- chem-smiles: "Nc1ncnc2c1c(-c1ccccc1)cn2[C@@H]1O[C@H](CO)[C@@H](O)[C@@H]1F"
  observed-result: 4.58
- chem-smiles: "COc1ccc(-c2cn([C@@H]3O[C@H](CO)[C@@H](O)[C@@]3(C)O)c3ncnc(N)c23)cc1"
  observed-result: 4.92
- chem-smiles: "Nc1ncnc2c1c(-c1ccco1)cn2[C@@H]1O[C@H](CO)[C@@H](O)[C@@H]1F"
  observed-result: 4.80
- chem-smiles: "Nc1ncnc2c1c(-c1ccoc1)cn2[C@@H]1O[C@H](CO)[C@@H](O)[C@@H]1O"
  observed-result: 4.60

1. C[C@@]1(O)[C@H](O)[C@@H](CO)O[C@H]1n1cc(-c2ccoc2)c2c(N)ncnc21
2. Nc1ncnc2c1c(-c1cccs1)cn2[C@H]1C[C@H](O)[C@@H](CO)O1
3. Nc1ncnc2c1c(-c1ccco1)cn2[C@@H]1O[C@H](CO)[C@@H](O)[C@@H]1O
4. Nc1ncnc2c1c(-c1ccsc1)cn2[C@@H]1O[C@H](CO)[C@@H](O)[C@@H]1O
Please put the entries in order of rising pEC50. Your answer should be the labels, listed in the requested order.
4, 1, 2, 3
